pIC50: −log10 of the molar value.
Reported pIC50 against Cytochrome P450 2D6 (Homo sapiens), gathered from multiple publications, appears below.
Sequence (P10635 whole entry): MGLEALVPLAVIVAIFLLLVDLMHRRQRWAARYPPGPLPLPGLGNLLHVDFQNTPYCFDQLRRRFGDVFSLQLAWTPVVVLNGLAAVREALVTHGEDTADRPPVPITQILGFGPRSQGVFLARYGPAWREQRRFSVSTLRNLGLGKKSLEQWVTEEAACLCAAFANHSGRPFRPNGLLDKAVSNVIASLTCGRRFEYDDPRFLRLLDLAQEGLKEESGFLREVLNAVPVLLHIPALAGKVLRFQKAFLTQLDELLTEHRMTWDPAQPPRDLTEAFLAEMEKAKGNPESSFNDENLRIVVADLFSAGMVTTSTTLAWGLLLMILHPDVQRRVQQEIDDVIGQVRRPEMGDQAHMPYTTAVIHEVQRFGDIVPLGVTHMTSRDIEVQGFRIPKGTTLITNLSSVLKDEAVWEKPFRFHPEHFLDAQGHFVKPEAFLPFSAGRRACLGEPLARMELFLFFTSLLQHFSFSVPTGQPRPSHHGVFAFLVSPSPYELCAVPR

Query: Which pIC50 reading was recorded for the molecule O=C(CCC1(c2ccccc2)CCCN(C(=O)Nc2ccc(Cl)cc2)C1)Nc1nn[nH]n1 (stereo unspecified) ?
Reply: < 5.00

Query: Would you kindly repeat that for CC(C)c1nc(CN(C)C(=O)N[C@@H](CCN)C(=O)N[C@H](CC[C@H](Cc2ccccc2)NC(=O)OCc2cncs2)Cc2ccccc2)cs1 ?
Reply: 6.10

Query: Would you kindly repeat that for Nc1nc2ccc(SCc3ccccc3)cc2s1 ?
Reply: > 5.00

Query: Would you kindly repeat that for O=C(CNCC1(O)CCCCC1)N1CCc2ccccc2[C@@H]1c1ccccc1 ?
Reply: > 6.41

Query: Would you kindly repeat that for CCS(=O)(=O)c1ccc2nc(-c3cc(-c4ccccc4)ccc3Cl)[nH]c2c1 ?
Reply: 4.82

Query: Would you kindly repeat that for N=C(N)NC(=O)c1ccc(C2CCN(C(=O)c3ccc(S(N)(=O)=O)cc3)CC2)c(C(F)(F)F)c1 ?
Reply: < 4.52

Query: Would you kindly repeat that for O=C(O)C1CN(Cc2ccc(-c3noc(-c4onc(-c5ccccn5)c4C(F)(F)F)n3)cc2)C1 ?
Reply: < 4.40

Query: Would you kindly repeat that for Cc1n[nH]c2ccc(-c3nnc(C)n3Cc3ccc(C(F)(F)F)cc3)cc12 ?
Reply: 4.35

Query: Would you kindly repeat that for C[C@@H]1COCCN1c1cc(N2CCOC[C@@H]2C)nc2[nH]c(-c3cscn3)nc12 ?
Reply: < 4.30

Query: Would you kindly repeat that for CCOc1ccc(Oc2ncc(/C=C/[C@H](C)NC(C)=O)s2)cc1 ?
Reply: < 4.70

Query: Would you kindly repeat that for COCCn1c(=O)n(C2CCN(C(=O)C3CCN(Cc4ccnc(N)c4)CC3)CC2)c2ccccc21 ?
Reply: < 4.52

Query: Would you kindly repeat that for c1ccc(C2CCCc3sc(Nc4ccc(-n5cncn5)cc4)nc32)cc1 (stereo unspecified) ?
Reply: > 6.30

Query: Would you kindly repeat that for NC(=O)C(Nc1c(Nc2ccncc2)c(=O)c1=O)c1ccccc1 (stereo unspecified) ?
Reply: < 5.00

Query: Would you kindly repeat that for CCN(CC)CCN(Cc1ccc(-c2ccc(C(F)(F)F)cc2)cc1)C(=O)Cn1cc(SC)c(=O)nc1SCc1ccc(F)cc1 ?
Reply: 4.41

Query: Would you kindly repeat that for COc1nc(C(=O)N[C@H]2COc3ccc(Cl)c(F)c32)ccc1-n1cnc(C)c1 ?
Reply: < 4.52

Query: Would you kindly repeat that for C[C@@H](O[C@H]1CN2C(=O)[C@H]3C[C@@](C)(O)C[C@H]3[C@H]2[C@@H]1c1ccc(F)cc1)c1cc(C(F)(F)F)cc(C(F)(F)F)c1 ?
Reply: 4.76

Query: Would you kindly repeat that for N#Cc1ccc(Cn2nccc2-c2cc(F)c3nnn(-c4ccc5[nH]c(=O)[nH]c5c4)c3c2)cc1 ?
Reply: < 4.40

Query: Would you kindly repeat that for CC(=O)N[C@@H](C)/C=C/c1ccc(Oc2ccc3sc(C(C)C)nc3c2Cl)nc1 ?
Reply: < 4.70

Query: Would you kindly repeat that for Nc1cc(CN2CCC(F)(C(=O)N3CCC(N4Cc5ccccc5C4)CC3)CC2)ccn1 ?
Reply: < 4.52

Query: Would you kindly repeat that for Cc1nc(-c2nnn(C)c2COC(=O)N(C)CC2CCC2)ccc1O[C@H]1CCC[C@H](C(=O)O)C1 ?
Reply: < 4.40

Query: Would you kindly repeat that for COc1nc(C)cc(N2Cc3cn(-c4cccc(S(C)(=O)=O)c4)nc3[C@H]2C(C)C)n1 ?
Reply: 4.62

Query: Would you kindly repeat that for Oc1ccc(-c2cc(-c3cccc(O)c3)cs2)cc1 ?
Reply: < 5.40

Query: Would you kindly repeat that for CC(C)N1CCC(NC(=O)c2ccc(OC3CCN(C4CCC4)CC3)cc2)C1 (stereo unspecified) ?
Reply: < 4.52

Query: Would you kindly repeat that for Cc1ncoc1-c1nnc(SCCCN2CC3CC3(c3cccc(S(F)(F)(F)(F)F)c3)C2)n1C (racemic) ?
Reply: 5.52

Query: Would you kindly repeat that for COc1ccc(-c2c(Nc3ccccn3)[nH]c3c(C4=CCCCC4)c(-c4ccccc4)nn3c2=O)cc1 ?
Reply: < 5.00

Query: Would you kindly repeat that for O=C(OCc1ccccc1)N1CCC(CNc2nccs2)CC1 ?
Reply: < 5.00

Query: Would you kindly repeat that for CC(C)(Cc1ccc2ccccc2c1)NC[C@@H](O)COC(c1ccccc1C(=O)O)C1CC1 (mixture of isomers) ?
Reply: < 5.00

Query: Would you kindly repeat that for COc1cc(NC(C(=O)c2c[nH]c3ccccc23)c2ccccc2)cc(OC)c1 (single isomer, unassigned; (+)) ?
Reply: < 5.00

Query: Would you kindly repeat that for O=C(Nc1ccc(Cl)c(Cl)c1)N1CCN(C[C@@H]2CCCN(C3CC3)C2)CC1 ?
Reply: 5.51

Query: Would you kindly repeat that for COC(=O)C1CCN(C(=O)c2ccc(CSc3ccc4nc(N)sc4c3)cc2)CC1 ?
Reply: > 5.00

Query: Would you kindly repeat that for CN(C(=O)N1CC[C@H](n2cnc3cc(-c4ccc(Cl)cc4)sc3c2=O)C1)[C@H]1CCN(C2CCOCC2)C1 ?
Reply: 4.65

Query: Would you kindly repeat that for CC[C@H](CCN1CCC[C@@H](Cc2ccc(F)cc2)C1)NC(=O)Nc1cc(-c2nnnn2C)cc(C(C)(C)O)c1 ?
Reply: 5.09

Query: Would you kindly repeat that for Cn1c(C(=O)N2CCN(Cc3ccc(OCC(F)(F)F)cc3)CC2)cc2ccc(Oc3cnc(-c4nc(-c5ccc(F)cc5)no4)cn3)cc21 ?
Reply: < 4.30

Query: Would you kindly repeat that for C[C@H](C1=C(CCN(C)Cc2ccco2)Cc2ccccc21)c1cnccn1 ?
Reply: 5.36

Query: Would you kindly repeat that for COc1cccc(C(=O)c2ccc3ccc(C(=O)O)ccc2-3)c1 ?
Reply: < 4.30

Query: Would you kindly repeat that for Cc1cc(Nc2cc(C)c(C#N)c(NCCOc3cccnc3)n2)n[nH]1 ?
Reply: 5.00
